Each entry below carries its reported T/C.
System: Swiss mice, Sarcoma 180 sc, mean tumor weight T/C
PROTOCOL_DESCRIPTION: NCI In Vivo Anticancer Drug Screen. Data for tumor model Sarcoma 180 (subcutaneous) in Swiss mice
CONDITION_PARAMETERS: endpoint: mean tumor weight; dose: 250.0 mg/kg/injection; schedule: Q01DX007 (ip); vehicle: carboxymethylcellulose (CMC); higher = larger tumour

COc1ccccc1NC(=O)CSC(N)=O | 61 % of control
CCOC(=O)C(N)CC(C)C (stereo not drawn) | 101 % of control

Lab note: next compound to report on.
Query: What does the record list as T/C for CN(CCO)/N=N/c1nc[nH]c1C(N)=O ?
Reply: 78 % of control
